Provenance of the data: ChEMBL document CHEMBL1139192

Target: Serine/threonine-protein kinase Chk1 (Homo sapiens)
Assay: Inhibition of human CHK1 at 1 uM relative to control; values are per cent of control
Quantity measured: residual activity (%)
Numbers only, in %.

CN(C)c1nc2ccc1CCCn1cc(c3ccccc31)C1=C(C(=O)NC1=O)c1cn(c3ccccc13)CC2 = 105
O=C1NC(=O)C2=C1c1cn(c3ccccc13)CCCc1cc(nc(N3CCCC3)c1)CCCn1cc2c2ccccc21 = 110
O=C1NC(=O)C2=C1c1cn(c3ccccc13)CCCc1ccc(c(N3CCCC3)n1)CCCn1cc2c2ccccc21 = 106

Under Serine/threonine-protein kinase Chk1 (Homo sapiens): residual activity value of `CN(C)c1cc2cc(n1)CCCn1cc(c3ccccc31)C1=C(C(=O)NC1=O)c1cn(c3ccccc13)CCC2` ? 101
